pIC50: −log10 of the molar value.
Record: compiled pIC50 on Macrophage colony-stimulating factor 1 receptor (Homo sapiens) from multiple reports.

Examples with answers:
# smilesCode, pIC50
rows = [
    ("CCNC(=O)c1cn(-c2ccc3c(c2)CCC3)c2nc(Nc3cccc(N4CCNCC4)c3)ncc2c1=O", 8.96),
    ("O=C(Nc1cccc(C(=O)c2c[nH]c3ncccc23)c1)Nc1ccc(Cl)c(C(F)(F)F)c1", "≥ 5.00"),
    ("NC(=O)c1cn(-c2ccc3c(c2)CCC3)c2nc(Nc3ccc(C4CCNCC4)cc3)ncc2c1=O", 9.31),
]

Reported pIC50, compound Fc1nc(NCc2cc(C(F)(F)F)cc(C(F)(F)F)c2)ccc1Cc1c[nH]c2ncncc12 : ____
≥ 5.00

Reported pIC50, compound Cc1cc(C)cc(CNc2ccc(Cc3c[nH]c4ncncc34)c(F)n2)c1 : ____
≥ 5.00

Reported pIC50, compound CCN1CCCn2c1ncc(-c1ccc(Cc3c[nH]c4ncc(Cl)cc34)c(C)n1)c2=O : ____
7.34

Reported pIC50, compound COc1ncnc2[nH]cc(Cc3ccc(NCc4ccc(C(F)(F)F)nc4)nc3)c12 : ____
≥ 5.00

Reported pIC50, compound CS(=O)(=O)Nc1cccc(-c2cnc3[nH]cc(C(=O)c4cc(NS(=O)(=O)C5CCCC5)ccc4F)c3c2)c1 : ____
≥ 5.00

----------
Record: compiled IC50 on Macrophage colony-stimulating factor 1 receptor (Homo sapiens, UniProt P07333) from multiple reports.

# compound, result
rows = [
    ("COc1ncccc1CNc1ccc(Cc2c[nH]c3ncncc23)c(F)n1", "≤ 10 µM"),
    ("CCCc1ccc(S(=O)(=O)Nc2ccc(F)c(C(=O)c3c[nH]c4ncc(-c5cnn(C)c5)cc34)c2F)cc1", "≤ 10 µM"),
    ("CS(=O)(=O)c1ccc(F)cc1CNc1ccc(Cc2c[nH]c3ncncc23)c(F)n1", "≤ 10 µM"),
    ("Cc1nc(-c2cnc3n(c2=O)CCC(C)N3C)ccc1Oc1ccnc(-c2cnn(C)c2)c1 (centres unmarked)", "0.108 µM"),
    ("CC(C)c1ccc(S(=O)(=O)Nc2ccc(F)c(C(=O)c3c[nH]c4ncc(-c5cnn(C)c5)cc34)c2F)cc1", "≤ 10 µM"),
]

Reported IC50, compound O=C(c1c(F)ccc(NS(=O)(=O)c2csc3ccccc23)c1F)c1c[nH]c2ncc(Cl)cc12 : ____
≤ 10 µM

Reported IC50, compound O=C(Nc1cccc(C(=O)c2c[nH]c3ncccc23)c1)Nc1ccon1 : ____
≤ 10 µM

Reported IC50, compound CCOc1ncnc2[nH]cc(Cc3ccc(Nc4ccc(OC)nc4)nc3F)c12 : ____
< 0.01 µM

----------
pIC50: −log10 of the molar value.
Record: compiled pIC50 on Macrophage colony-stimulating factor 1 receptor (Homo sapiens, UniProt P07333) from multiple reports.

Examples with answers:
# smilesCode, pIC50
records = [
    ("COc1ccc(CNc2ccc(C(=O)c3c[nH]c4ncncc34)c(C)n2)cn1", "≥ 5.00"),
    ("N#Cc1cc2cnc(Nc3ccc4c(c3)C(=O)NC4)nc2n(C2CCCC2)c1=O", 8.30),
    ("CCCS(=O)(=O)Nc1ccc(F)c(C(=O)c2c[nH]c3ncc(-c4cccc(O)c4)cc23)c1F", "≥ 5.00"),
    ("COc1cccc(Cc2c[nH]c3ncc(-c4cccc(F)c4)cc23)c1F", "≥ 5.00"),
    ("O=C(c1c(F)ccc(NS(=O)(=O)c2cc3ccccc3s2)c1F)c1c[nH]c2ncc(Cl)cc12", "≥ 5.00"),
]

Reported pIC50, molecule CCCS(=O)(=O)Nc1ccc(F)c(C(=O)c2c[nH]c3ncc(-c4ccc(S(=O)(=O)N5CCOCC5)cc4)cc23)c1F : ____
≥ 5.00

Reported pIC50, molecule CCCS(=O)(=O)Nc1ccc(F)c(C(=O)c2c[nH]c3ncc(-c4ncc(C)n4C)cc23)c1F : ____
≥ 5.00

Reported pIC50, molecule COc1cc(Cc2c[nH]c3ncccc23)c(Cl)cc1OCc1nc2ccccc2[nH]1 : ____
≥ 5.00

----------
Record: compiled IC50 on Macrophage colony-stimulating factor 1 receptor (Homo sapiens) from multiple reports.

Examples with answers:
# molecule, result
rows = [
    ("CCCS(=O)(=O)Nc1ccc(F)c(C(=O)c2c[nH]c3ncc(-c4ccc(C#CCN(CC)CC)nc4)cc23)c1F", "≤ 10000 nM"),
    ("O=C(c1c(F)ccc(OC(F)F)c1F)c1c[nH]c2ncc(-c3cccnc3)cc12", "≤ 10000 nM"),
]

Query for Macrophage colony-stimulating factor 1 receptor (Homo sapiens): what IC50 does the record show for Oc1ccc(F)c(C(O)c2c[nH]c3ncc(-c4cccnc4)cc23)c1F (centres unmarked) ?
≤ 10000 nM

Query for Macrophage colony-stimulating factor 1 receptor (Homo sapiens): what IC50 does the record show for COCCOCCOc1cc(Cl)c(Cc2c[nH]c3ncc(Cl)cc23)cc1F ?
≤ 10000 nM

Query for Macrophage colony-stimulating factor 1 receptor (Homo sapiens): what IC50 does the record show for COc1ccc(NC(=O)Nc2cccc(C(=O)c3c[nH]c4ncc(-c5cccnc5)cc34)c2)cc1 ?
≤ 10000 nM

Query for Macrophage colony-stimulating factor 1 receptor (Homo sapiens): what IC50 does the record show for N#Cc1cc2cnc(Nc3ccc(N4CCNCC4)cc3)nc2n(C2CCc3ccccc32)c1=O (centres unmarked) ?
4 nM

Query for Macrophage colony-stimulating factor 1 receptor (Homo sapiens): what IC50 does the record show for CCCCNC(=O)Nc1ccc(F)c(C(=O)c2c[nH]c3ncc(OC)cc23)c1F ?
≤ 10000 nM

Query for Macrophage colony-stimulating factor 1 receptor (Homo sapiens): what IC50 does the record show for N#Cc1cc2cnc(Nc3cnn(C4CCC(O)CC4)c3)nc2n(C2CCCC2)c1=O (centres unmarked) ?
1 nM

Query for Macrophage colony-stimulating factor 1 receptor (Homo sapiens): what IC50 does the record show for CNc1ncnc2[nH]cc(C(=O)c3cnc(NC4CCC(F)(F)CC4)c(F)c3)c12 ?
< 10 nM

Query for Macrophage colony-stimulating factor 1 receptor (Homo sapiens): what IC50 does the record show for CCOCCCn1c(=O)c(C#N)cc2cnc(Nc3ccc4c(c3)CCNC4)nc21 ?
6.5 nM

Query for Macrophage colony-stimulating factor 1 receptor (Homo sapiens): what IC50 does the record show for COc1ccc(Nc2ccc(C(=O)c3c[nH]c4ncnc(C5CC5)c34)c(F)n2)cn1 ?
< 100 nM

Query for Macrophage colony-stimulating factor 1 receptor (Homo sapiens): what IC50 does the record show for COc1ccc(NC(=O)Nc2cccc(C(=O)c3c[nH]c4ncc(-c5ccc(F)cc5)cc34)c2)cc1OC ?
≤ 10000 nM

Query for Macrophage colony-stimulating factor 1 receptor (Homo sapiens): what IC50 does the record show for O=C(c1cccc(NS(=O)(=O)C2CCCC2)c1)c1c[nH]c2ncc(Cl)cc12 ?
≤ 10000 nM

----------
Record: compiled IC50 on UniProtKB P07333 from multiple reports.

Examples with answers:
# compound, resultType, result
rows = [
    ("CS(=O)(=O)Nc1cccc(-c2cnc3[nH]cc(C(=O)c4cc(NS(=O)(=O)c5cccnc5)ccc4F)c3c2)c1", "IC50", "≤ 10000 nM"),
    ("CCOc1ccc(Nc2ncc(Cc3c[nH]c4ncc(C)cc34)cn2)cc1", "IC50", "< 10 nM"),
    ("Cc1ccc(Nc2ccc(C(=O)c3c[nH]c4ncc(Cl)cc34)c(F)n2)cn1", "IC50", "< 10 nM"),
]

Reported IC50, compound COc1cc2nccc(Oc3ccc(NC(=O)c4nn(C5CCOCC5)cc(-c5ccc(C)cc5)c4=O)cc3F)c2cc1OC : ____
< 200 nM

Reported IC50, compound CCNc1ccn(-c2ccc(F)cc2)c(=O)c1C(=O)Nc1cc(F)c(Oc2ccnc(-c3cnn(C)c3)c2)cc1F : ____
100 to 1000 nM

Reported IC50, compound CC(C)N1CCOc2c(F)cc(-c3nc(Nc4ccc(N5CCSCC5)c(F)c4)ncc3F)cc21 : ____
46 nM

Reported IC50, compound NC(=O)c1cccc(-c2cnc3[nH]cc(C(=O)c4cccc(O)c4F)c3c2)c1 : ____
≤ 10000 nM

Reported IC50, compound CCCS(=O)(=O)Nc1ccc(F)c(Cc2c[nH]c3ncc(-c4ccccc4)cc23)c1F : ____
≤ 10000 nM

Reported IC50, compound COc1cc(Cc2c[nH]c3ncc(Br)cc23)c(F)cc1OCc1nc2ccccc2[nH]1 : ____
≤ 10000 nM

Reported IC50, compound Cc1cc(-c2cc(Oc3ccc(NC(=O)N4CCC(C)(C)C4=O)nc3C)ccn2)ccn1 : ____
42.9 nM

Reported IC50, compound O=C(Nc1cccc(C(=O)c2c[nH]c3ncc(-c4cccnc4)cc23)c1)Nc1cccc(C(F)(F)F)c1F : ____
≤ 10000 nM

Reported IC50, compound O=C(Nc1cccc(C(=O)c2c[nH]c3ncccc23)c1)Nc1cc(C(F)(F)F)ccc1Cl : ____
≤ 10000 nM

Reported IC50, compound CN1CCN(C(=O)c2cccc(Nc3ncc4cc(C#N)c(=O)n(C5CCCC5)c4n3)c2)CC1 : ____
7 nM
